Each recorded value in this set is attributed to patent US20040121947A1.

Reported log10(Ki) values for the following compounds.
- targetSystem: T1, memapsin 2 (Homo sapiens, UniProt P56817)
- T1 construct: pET-11 vector-derived residues 1-15 of promemapsin 2-T1 (N, cleaved yes); made in house; host or cells: E. coli
- T1 sequence (P56817 41-454 limits assumed): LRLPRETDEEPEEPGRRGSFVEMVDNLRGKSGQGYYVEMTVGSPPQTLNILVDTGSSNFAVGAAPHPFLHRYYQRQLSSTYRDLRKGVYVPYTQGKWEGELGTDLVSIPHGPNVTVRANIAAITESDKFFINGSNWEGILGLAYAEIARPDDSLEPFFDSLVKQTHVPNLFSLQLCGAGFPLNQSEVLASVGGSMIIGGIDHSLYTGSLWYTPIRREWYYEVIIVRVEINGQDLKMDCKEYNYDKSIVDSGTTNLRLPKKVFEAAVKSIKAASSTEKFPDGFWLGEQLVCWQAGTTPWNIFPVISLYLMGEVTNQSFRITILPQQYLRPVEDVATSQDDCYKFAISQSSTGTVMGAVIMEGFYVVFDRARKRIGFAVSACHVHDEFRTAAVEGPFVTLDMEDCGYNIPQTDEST
- experimentalDetails: Inhibition of memapsin 2 proteolytic activity, fluorogenic substrate FS-2
- Type: biochemical
- conditionNotes: memapsin 2; independent of substrate, converted from Ki apparent; read-out: Ki
Units before log transform: µM; reported quantity: Ki; transform: log10.

Example entries begin here.
{"compound": "COCOCC[C@H](NC(=O)[C@H](CC(C)C)NC(=O)OC(C)(C)C)C(=O)N[C@@H](CC(C)C)[C@@H](O)C[C@@H](C)C(=O)N[C@@H](CC(C)C)C(=O)NC(C)C [MMI-190]", "log10(Ki)": -1.74}
{"compound": "CC(C)C[C@H](NC(=O)[C@H](CCO)NC(=O)c1cnc2ccccc2c1)[C@@H](O)C[C@@H](C)C(=O)N[C@H](C(=O)N[C@H]1c2ccccc2C[C@H]1O)C(C)C [MMI-049]", "log10(Ki)": 2.09}
{"compound": "CCC[C@H](C[C@H](O)[C@H](CC(C)C)NC(=O)[C@H](CSC)NC(=O)O[C@H]1CO[C@H]2OCC[C@H]21)C(=O)N[C@H](C(=O)NCc1ccccc1)C(C)C [MMI-028]", "log10(Ki)": 0.79}
{"compound": "CC(C)C[C@H](NC(=O)[C@H](CCS(C)(=O)=O)NC(=O)[C@@H](NC(=O)OC(C)(C)C)C(C)C)[C@@H](O)C[C@@H](C)C(=O)N[C@H](C(=O)NCc1cccnc1)C(C)C [MMI-088]", "log10(Ki)": -0.19}
{"compound": "CSCC[C@H](NC(=O)[C@H](CC(C)C)NC(=O)OC(C)(C)C)C(=O)N[C@@H](CC(C)C)[C@@H](O)C[C@@H](C)C(=O)N[C@@H](CC(C)C)C(=O)NC(C)C [MMI-158]", "log10(Ki)": -3.48}

Give the reported log10(Ki) for CCC[C@H](C[C@H](O)[C@H](CC(C)C)NC(=O)[C@H](CSC)NC(=O)O[C@@H]1C[C@@H]2CCO[C@@H]2C1)C(=O)N[C@H](C(=O)NCc1ccccc1)C(C)C [MMI-027] (system: T1, memapsin 2 (Homo sapiens, UniProt P56817)).
0.86

Give the reported log10(Ki) for CC(C)C[C@H](NC(=O)[C@H](CCS(C)(=O)=O)NC(=O)OC(C)(C)C)[C@@H](O)C[C@@H](C)C(=O)N[C@@H](C)C(=O)NCc1ccccc1 [MMI-007] (system: T1, memapsin 2 (Homo sapiens, UniProt P56817)).
1.50

Give the reported log10(Ki) for CC(C)C[C@H](NC(=O)[C@H](CCS(C)(=O)=O)NC(=O)[C@@H](NC(=O)OC(C)(C)C)C(C)C)[C@@H](O)C[C@@H](C)C(=O)N[C@@H](C)C(=O)NCc1ccccc1 [MMI-009] (system: T1, memapsin 2 (Homo sapiens, UniProt P56817)).
-1.25

Give the reported log10(Ki) for COc1ccccc1C(=O)N[C@@H](CCSC)C(=O)N[C@@H](CC(C)C)[C@@H](O)C[C@@H](C)C(=O)N[C@@H](CC(C)C)C(=O)NC(C)C [MMI-207] (system: T1, memapsin 2 (Homo sapiens, UniProt P56817)).
-0.01

Give the reported log10(Ki) for CSCC[C@H](NC(=O)c1cccc(O)c1O)C(=O)N[C@@H](CC(C)C)[C@@H](O)C[C@@H](C)C(=O)N[C@@H](CC(C)C)C(=O)NC(C)C [MMI-200] (system: T1, memapsin 2 (Homo sapiens, UniProt P56817)).
-0.02

Give the reported log10(Ki) for CSCC[C@H](NC(=O)[C@H](CC(C)C)NC(=O)OC(C)(C)C)C(=O)N[C@@H](CC(C)C)[C@@H](O)C[C@@H](C)C(=O)N[C@H](C(=O)NCc1ccco1)C(C)C [MMI-161] (system: T1, memapsin 2 (Homo sapiens, UniProt P56817)).
-3.37

---

- targetSystem: T1, memapsin 2 (Homo sapiens, UniProt P56817)
- T1 construct: pET-11 vector-derived residues 1-15 of promemapsin 2-T1 (N, cleaved yes); made in house; host or cells: E. coli
- experimentalDetails: Inhibition of memapsin 2 proteolytic activity, fluorogenic substrate FS-2
- Assay type: biochemical
- conditionNotes: memapsin 2; independent of substrate, converted from Ki apparent; read-out: Ki
- Description: Ki is the inhibition equilibrium constant which indicates the ability of compounds to inhibit the β-secretase activity of memapsin 2 and memapsin 1. […] The K1 value is independent of the substrate, and converted from Ki apparent. The Vi/Vo values depicted in Table 1 were determined at conditions under which the enzyme and inhibitor concentrations were equal (e.g., about 80 nM, 100 nM). […]
Under this convention, 1 (yes) denotes Ki strictly below 0.5 µM and 0 (no) denotes Ki at or above 0.5 µM.

{"compound": "CC(C)C[C@H](NC(=O)[C@H](CCS(C)(=O)=O)NC(=O)[C@@H](NC(=O)OC(C)(C)C)C(C)C)[C@@H](O)C[C@@H](C)C(=O)N[C@H]1c2ccccc2C[C@H]1O", "cat": "0 (no)"}
{"compound": "CSCC[C@H](NC(=O)c1cccc(O)c1C)C(=O)N[C@@H](CC(C)C)[C@@H](O)C[C@@H](C)C(=O)N[C@@H](CC(C)C)C(=O)NCc1ccccc1", "cat": "0 (no)"}
{"compound": "CSCC[C@H](NC(=O)OC(C)(C)C)C(=O)N[C@@H](CC(C)C)[C@@H](O)C[C@@H](C)C(=O)N[C@@H](C)C(=O)NCc1ccccc1", "cat": "0 (no)"}
{"compound": "CSCC[C@H](NC(=O)C(C)Cn1nc(C)cc1C)C(=O)N[C@@H](CC(C)C)[C@@H](O)C[C@@H](C)C(=O)N[C@H](C(=O)NCc1ccco1)C(C)C (some centres unmarked)", "cat": "1 (yes)"}
{"compound": "CSCC[C@H](NC(=O)[C@@H](NC(=O)OC(C)(C)C)C(C)C)C(=O)N[C@@H](CC(C)C)[C@@H](O)C[C@H](C(=O)N[C@@H](C)C(=O)NCc1ccccc1)C(C)C", "cat": "1 (yes)"}

In the record for `CSCC[C@H](NC(=O)[C@@H](NC(=O)OC(C)(C)C)C(C)C)C(=O)N[C@@H](CC(C)C)[C@@H](O)C[C@@H](CCO)C(=O)N[C@H](C(=O)NCc1ccccc1)C(C)C` , is Ki less than 0.5 µM?
1 (yes)

In the record for `CSCC[C@H](NC(=O)[C@@H](NC(=O)OC(C)(C)C)C(C)C)C(=O)N[C@@H](CC(C)C)[C@@H](O)CN(C)C(=O)[C@H](NC(=O)OCc1ccccc1)C(C)C` , is Ki less than 0.5 µM?
0 (no)

---

- targetSystem: T1, memapsin 2 (Homo sapiens, UniProt P56817)
- T1 construct: pET-11 vector-derived residues 1-15 of promemapsin 2-T1 (N, cleaved yes); made in house; host or cells: E. coli
- experimentalDetails: Inhibition of memapsin 2 proteolytic activity, fluorogenic substrate FS-2
- Format: biochemical
- conditionNotes: memapsin 2; apparent Ki in presence of substrate FS-2; read-out: Ki app
readoutType: pKi
The read-out pKi is expressed as -log10 of concentration in moles per litre.

{"compound": "CSCC[C@H](C[C@H](O)[C@H](Cc1ccccc1)NC(=O)[C@H](CCSC)NC(=O)[C@@H](NC(=O)OC(C)(C)C)C(C)C)C(=O)N[C@H](C(=O)NCc1ccccc1)C(C)C", "pKi": 7.24}
{"compound": "CSCC[C@H](NC(=O)[C@@H](NC(=O)OC(C)(C)C)C(C)C)C(=O)N[C@@H](CC(C)C)[C@@H](O)C[C@H](C(=O)N[C@H](C(=O)NCc1ccccc1)C(C)C)C(C)C", "pKi": 6.16}
{"compound": "CCCCNC(=O)[C@@H](NC(=O)[C@H](C)C[C@H](O)[C@H](CC(C)C)NC(=O)[C@H](CCSC)NC(=O)OCn1nc(C)cc1C)C(C)C", "pKi": 7.44}
{"compound": "COCC[C@H](NC(=O)C(Cn1nc(C)cc1C)C(C)C)C(=O)N[C@@H](CC(C)C)[C@@H](O)C[C@@H](C)C(=O)N[C@H](C(=O)NCC(C)C)C(C)C (some centres unmarked)", "pKi": 6.75}

Now for another entry.
Give the reported pKi for `CSCC[C@H](NC(=O)OCc1ccnn1C)C(=O)N[C@@H](CC(C)C)[C@@H](O)C[C@@H](C)C(=O)N[C@H](C(=O)NCC(C)C)C(C)C` (system: T1, memapsin 2 (Homo sapiens, UniProt P56817)).
6.66

---

- targetSystem: T1, memapsin 2 (Homo sapiens, UniProt P56817)
- T1 construct: pET-11 vector-derived residues 1-15 of promemapsin 2-T1 (N, cleaved yes); made in house; host or cells: E. coli
- experimentalDetails: Inhibition of memapsin 2 proteolytic activity, fluorogenic substrate FS-2
- Type: biochemical
- conditionNotes: memapsin 2; apparent Ki in presence of substrate FS-2; read-out: Ki app
readoutType: pKi
The read-out pKi is expressed as -log10 of concentration in moles per litre.

Example entries begin here.
{"molecule": "CC(C)C[C@H](NC(=O)[C@@H]1CC(=O)NC/C=C\\CCOC(=O)N[C@@H](C(C)C)C(=O)N1)[C@@H](O)C[C@@H](C)C(=O)N[C@H](C(=O)NCc1ccccc1)C(C)C", "pKi": 7.69}
{"molecule": "CSCC[C@H](NC(=O)[C@@H](NC(=O)OC(C)(C)C)[C@H](C)O)C(=O)N[C@@H](CC(C)C)[C@@H](O)C[C@@H](C)C(=O)N[C@@H](CC(C)C)C(=O)NC(C)C", "pKi": 7.02}
{"molecule": "CSCC[C@H](NC(=O)[C@H](CC(C)C)NC(=O)OC(C)(C)C)C(=O)N[C@@H](CC(C)C)[C@@H](O)C[C@@H](C)C(=O)N[C@H](C(=O)NCC(C)C)C(C)C", "pKi": 8.46}
{"molecule": "CSCC[C@@H](COC(=O)N[C@@H](CC(C)C)[C@@H](O)C[C@@H](C)C(=O)N[C@H](C(=O)NCc1ccccc1)C(C)C)NC(=O)[C@@H](NC(=O)OC(C)(C)C)C(C)C", "pKi": 6.36}

So what does the record say about pKi for CSCC[C@H](NC(=O)[C@@H](NC(=O)OC(C)(C)C)C(C)C)C(=O)N[C@@H](CC(C)C)[C@@H](O)C[C@@H](C)C(=O)N[C@@H](C(C)C)C1CC(Cc2ccccc2)CC(=O)O1 (some centres unmarked) [MMI-141] ?
4.52
